# measured-on: Pyruvate kinase (Leishmania mexicana) (UniProt Q27686)
# Sequence (Q27686 whole entry, looked up): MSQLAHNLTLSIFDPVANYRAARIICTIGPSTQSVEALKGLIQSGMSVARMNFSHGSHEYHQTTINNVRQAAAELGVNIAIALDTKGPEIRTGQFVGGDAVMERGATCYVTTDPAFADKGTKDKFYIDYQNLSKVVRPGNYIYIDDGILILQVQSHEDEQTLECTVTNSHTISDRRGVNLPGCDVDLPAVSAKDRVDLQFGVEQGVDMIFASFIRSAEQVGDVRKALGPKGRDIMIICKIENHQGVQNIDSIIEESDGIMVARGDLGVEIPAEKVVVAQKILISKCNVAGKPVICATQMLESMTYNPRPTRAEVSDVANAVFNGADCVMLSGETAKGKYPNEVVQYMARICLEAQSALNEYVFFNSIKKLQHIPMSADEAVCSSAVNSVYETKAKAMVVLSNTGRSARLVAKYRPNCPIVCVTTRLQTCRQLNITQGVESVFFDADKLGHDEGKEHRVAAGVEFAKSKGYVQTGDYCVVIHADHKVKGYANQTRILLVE
# assay-text: Confirmation Assay for Inhibitors of Leishmania Mexicana Pyruvate Kinase (LmPK): for Probe SAR
# conditions: purified LmPK, ATP generation, Kinase-Glo luminescence; series mostly up to 57.5 µM
Inconclusive results are not listed. Activity calls are given as the source filed them. The call rests on the fitted dose curve; in most records, active means well fitted inhibition curve with a large enough effect; inconclusive means small, poorly fitted or top-dose-only effect, or effect the other way; inactive means flat fitted curve, though single readings scatter.
Outcome codes: True for active, False for inactive

| molecule | measured-on | class-label |
| --- | --- | --- |
| Cc1ccc(N2C(=O)c3ccccc3C2=O)c(C)c1 | Pyruvate kinase (Leishmania mexicana) (UniProt Q27686) | False |
| O=S1(=O)N=C(N2CCOCC2)c2ccccc21 | Pyruvate kinase (Leishmania mexicana) (UniProt Q27686) | False |
| Cc1ccc2nc(-c3ccc(C)o3)c(Nc3ccccc3)n2c1 | Pyruvate kinase (Leishmania mexicana) (UniProt Q27686) | False |
| Cc1ccccc1Nc1c(-c2ccccc2)nc2cccc(C)n12 | Pyruvate kinase (Leishmania mexicana) (UniProt Q27686) | False |
| Cc1ccc(NS(=O)(=O)c2ccc3c(c2)CC(=O)N3C)cc1C | Pyruvate kinase (Leishmania mexicana) (UniProt Q27686) | False |
| COc1ccc(-c2nc3cccc(C)n3c2Nc2ccc(C)cc2)cc1 | Pyruvate kinase (Leishmania mexicana) (UniProt Q27686) | False |
| Cc1ccccc1NS(=O)(=O)c1ccc2c(c1)CCC(=O)N2 | Pyruvate kinase (Leishmania mexicana) (UniProt Q27686) | False |
| O=C1c2ccccc2C(=O)N1c1noc2ccccc12 | Pyruvate kinase (Leishmania mexicana) (UniProt Q27686) | False |
| COc1ccc(N2C(=O)c3ccccc3S2(=O)=O)cc1 | Pyruvate kinase (Leishmania mexicana) (UniProt Q27686) | False |
| O=C1CCc2cc(S(=O)(=O)Nc3ccc(-c4ccccc4)cc3)ccc2N1 | Pyruvate kinase (Leishmania mexicana) (UniProt Q27686) | False |
| Cc1scc2c1C(=O)NS2(=O)=O | Pyruvate kinase (Leishmania mexicana) (UniProt Q27686) | False |
| O=S1(=O)N=C(Oc2ccccc2Br)c2ccccc21 | Pyruvate kinase (Leishmania mexicana) (UniProt Q27686) | True |
| O=S1(=O)N=C(Sc2cccc3cccnc23)c2ccccc21 | Pyruvate kinase (Leishmania mexicana) (UniProt Q27686) | True |
| Cc1ccc(Nc2c(-c3ccsc3)nc3c(C)cccn23)cc1 | Pyruvate kinase (Leishmania mexicana) (UniProt Q27686) | False |
| Cn1c2cc(S(C)=O)sc2c2cnn(Cc3cccc(N)c3)c(=O)c21 (stereo not drawn) | Pyruvate kinase (Leishmania mexicana) (UniProt Q27686) | False |
| Cc1ccc(NS(=O)(=O)c2cccc(Cl)c2)cc1C | Pyruvate kinase (Leishmania mexicana) (UniProt Q27686) | False |
| Cc1ccccc1Nc1c(-c2ccc(Cl)s2)nc2ccccn12 | Pyruvate kinase (Leishmania mexicana) (UniProt Q27686) | False |
| O=S1(=O)N=C(Oc2ccc3ccccc3c2)c2ccccc21 | Pyruvate kinase (Leishmania mexicana) (UniProt Q27686) | True |
| CC(=O)Nc1ccc(S(=O)(=O)Nc2ccc(C)c(C)c2)cc1 | Pyruvate kinase (Leishmania mexicana) (UniProt Q27686) | False |
| Cc1ccc(NS(=O)(=O)c2cc3c(cc2-c2ccccc2)NC(=O)CO3)cc1C | Pyruvate kinase (Leishmania mexicana) (UniProt Q27686) | False |
| Cc1ccc(NS(=O)(=O)c2ccc3[nH]c(=O)[nH]c3c2)cc1C | Pyruvate kinase (Leishmania mexicana) (UniProt Q27686) | False |
| O=S(=O)(c1ccc2c(c1)OCCO2)N1CCN(S(=O)(=O)c2c(F)cccc2F)CC1 | Pyruvate kinase (Leishmania mexicana) (UniProt Q27686) | False |
| CCNc1cccc(S(=O)(=O)N2CCN(S(=O)(=O)c3ccc4c(c3)OCCO4)CC2)c1 | Pyruvate kinase (Leishmania mexicana) (UniProt Q27686) | False |
| Cc1ccc(NS(=O)(=O)c2cc3c(cc2C)NC(=O)CO3)cc1C | Pyruvate kinase (Leishmania mexicana) (UniProt Q27686) | False |
| Cc1ccc(NS(=O)(=O)c2ccc3c(c2)CCC(=O)N3)cc1C | Pyruvate kinase (Leishmania mexicana) (UniProt Q27686) | False |
| O=C1c2ccccc2C(=O)N1Cc1ccccc1 | Pyruvate kinase (Leishmania mexicana) (UniProt Q27686) | False |
| Cc1ccc(NS(=O)(=O)c2cc3c(cc2Br)NC(=O)CO3)cc1C | Pyruvate kinase (Leishmania mexicana) (UniProt Q27686) | False |
| O=C1CCc2cc(S(=O)(=O)Nc3cccc(C(F)(F)F)c3)ccc2N1 | Pyruvate kinase (Leishmania mexicana) (UniProt Q27686) | False |
| Cc1ccc(NS(=O)(=O)c2cc3c(cc2/C=C/c2ccccc2)NC(=O)CO3)cc1C | Pyruvate kinase (Leishmania mexicana) (UniProt Q27686) | False |
| O=C1CCc2cc(S(=O)(=O)Nc3cccc(-c4ccccc4)c3)ccc2N1 | Pyruvate kinase (Leishmania mexicana) (UniProt Q27686) | False |
| Cc1ccc(NS(=O)(=O)c2cc3c(cc2-c2ccco2)NC(=O)CO3)cc1C | Pyruvate kinase (Leishmania mexicana) (UniProt Q27686) | False |
| Cc1ccc(NS(=O)(=O)c2cc3c(cc2N2CCCCC2)NC(=O)CC3)cc1C | Pyruvate kinase (Leishmania mexicana) (UniProt Q27686) | False |
| Cc1ccc(NS(=O)(=O)c2ccc(F)cc2)cc1C | Pyruvate kinase (Leishmania mexicana) (UniProt Q27686) | False |
| CC(=O)Nc1cccc(OC2=NS(=O)(=O)c3ccccc32)c1 | Pyruvate kinase (Leishmania mexicana) (UniProt Q27686) | True |
| N#Cc1cccc(OC2=NS(=O)(=O)c3ccccc32)c1 | Pyruvate kinase (Leishmania mexicana) (UniProt Q27686) | True |
| O=C1c2ccccc2C(=O)N1c1cc(=O)c2ccccc2[nH]1 | Pyruvate kinase (Leishmania mexicana) (UniProt Q27686) | True |
| COc1ccc(-c2nc3ccccn3c2Nc2ccccc2C)cc1 | Pyruvate kinase (Leishmania mexicana) (UniProt Q27686) | False |
| CC(=O)Nc1cccc(S(=O)(=O)Nc2ccc(C)c(C)c2)c1 | Pyruvate kinase (Leishmania mexicana) (UniProt Q27686) | False |
| Cc1ccc(OC2=NS(=O)(=O)c3ccccc32)cc1 | Pyruvate kinase (Leishmania mexicana) (UniProt Q27686) | True |
| Cc1ccc(NS(=O)(=O)c2ccc3c(c2)CCC(=O)N3)cc1 | Pyruvate kinase (Leishmania mexicana) (UniProt Q27686) | False |
| Cc1ccc(C)c(O)c1 | Pyruvate kinase (Leishmania mexicana) (UniProt Q27686) | False |
| Cc1ccccc1N(C)C1=N[S+](=O)([O-])c2ccccc21 | Pyruvate kinase (Leishmania mexicana) (UniProt Q27686) | False |
| Cc1ccc(NS(=O)(=O)c2ccc3c(ccn3C)c2)cc1C | Pyruvate kinase (Leishmania mexicana) (UniProt Q27686) | False |

---

# measured-on: Pyruvate kinase (Leishmania mexicana) (UniProt Q27686)
# assay-text: Confirmation Assay for Inhibitors of Leishmania Mexicana Pyruvate Kinase (LmPK): for Probe SAR
# conditions: purified LmPK, ATP generation, Kinase-Glo luminescence; series mostly up to 57.5 µM
# Source text: NIH Chemical Genomics Center [NCGC] […] ATP generation was detected in a coupled reaction by luciferase-mediated luminescence, an ATP-dependent process. […]
Records with an inconclusive call do not appear. Activity calls are given as the source filed them. Calls follow the shape of the dose curve; as a rule, active = well fitted inhibition curve with a large enough effect; inconclusive = small, poorly fitted or top-dose-only effect, or effect the other way; inactive = flat fitted curve, though single readings scatter.
Outcome codes: active, inactive

| smiles-input | class-label |
| --- | --- |
| O=S(=O)(Nc1ccc(O)c(NS(=O)(=O)c2ccccc2)c1)c1ccccc1 | inactive |
| Cc1ccc(NS(=O)(=O)c2cccc(C(=O)O)c2)cc1C | inactive |
| Cc1ccc(C)c(OC2=NS(=O)(=O)c3ccccc32)c1 | active |
| O=S1(=O)N=C(Oc2ccccc2)c2ccccc21 | active |
| Cc1ccc2nc(-c3ccc(C)o3)c(Nc3ccc(Cl)cc3)n2c1 | inactive |
| Cc1ccc2nc(-c3ccc(C)o3)c(Nc3ccc(F)cc3)n2c1 | inactive |
| CC(=O)Nc1ccccc1OC1=N[S+](=O)([O-])c2ccccc21 | inactive |
| COC(=O)c1ccccc1S(=O)(=O)Nc1cc(=O)c2ccccc2[nH]1 | inactive |
| COC(=O)c1ccccc1S(=O)(=O)Nc1ccc(OC)cc1 | inactive |
| COc1ccccc1N1C(=O)c2ccccc2C1=O | inactive |
| O=C1CCc2cc(S(=O)(=O)Nc3cccc(F)c3)ccc2N1 | inactive |
| COc1cccc(N2C(=O)c3ccccc3C2=O)c1 | inactive |
| COc1ccc(NS(=O)(=O)c2ccc3c(c2)CCC(=O)N3)cc1 | inactive |
| Cc1ccc(-c2nc3cccc(C)n3c2Nc2ccc(F)cc2)o1 | inactive |
| O=C1CCc2cc(S(=O)(=O)Nc3ccc4ccccc4c3)ccc2N1 | inactive |
| O=C(O)c1ccccc1OC1=NS(=O)(=O)c2ccccc21 | active |
| Cc1cc(C)c2[nH]c(C3C(=O)c4ccccc4C3=O)cc(=O)c2c1 | inactive |
| Cc1ccc(NS(=O)(=O)c2cc3c(cc2Cl)NC(=O)CO3)cc1C | inactive |
